// data source = patent US11357230B2

tested on: pigweed (Amaranthus retroflexus); experiment: Test A preemergence, pigweed; format: in vivo; settings: 125 g ai/ha, approximately 10 d
For each entry below, report its Plant response rating (0 to 100 scale, 0 is no effect, 100 is complete control) value.
Form rule: numeric answer, no unit written next to it.

Returns the measured Plant response rating (0 to 100 scale, 0 is no effect, 100 is complete control) for the input compound. Input: CN1C[C@H](c2ccc(C(F)(F)F)cc2)[C@@H](C(=O)Nc2cccc(F)c2F)C1=NN1CCOCC1 (relative stereo) 10

Looking for the measured Plant response rating (0 to 100 scale, 0 is no effect, 100 is complete control) of CC(=O)NN=C1[C@H](C(=O)Nc2cccc(F)c2F)[C@@H](c2ccc(C(F)(F)F)cc2)CN1C (relative stereo) , can you help? 80

What value of Plant response rating (0 to 100 scale, 0 is no effect, 100 is complete control) has been recorded for this entry: CN1C[C@H](c2ccc(C(F)(F)F)cc2)[C@@H](C(=O)Nc2cccc(F)c2F)C1=NNC(=O)OC(C)(C)C (relative stereo) 80

Entry "CN1C[C@H](c2ccc(C(F)(F)F)cc2)[C@@H](C(=O)Nc2cccc(F)c2F)C1=NN" has what Plant response rating (0 to 100 scale, 0 is no effect, 100 is complete control)? 80

For CNN=C1[C@H](C(=O)Nc2cccc(F)c2F)[C@@H](c2ccc(C(F)(F)F)cc2)CN1C (relative stereo) , what is its reported Plant response rating (0 to 100 scale, 0 is no effect, 100 is complete control)? 70

Using the record for CN(C)N=C1[C@H](C(=O)Nc2cccc(F)c2F)[C@@H](c2ccc(C(F)(F)F)cc2)CN1C (relative stereo) , report its Plant response rating (0 to 100 scale, 0 is no effect, 100 is complete control). 60

Using the record for "CN1C[C@H](c2ccc(C(F)(F)F)cc2)[C@@H](C(=O)Nc2cccc(F)c2F)C1=NNC(=O)C(C)(C)C" , report its Plant response rating (0 to 100 scale, 0 is no effect, 100 is complete control). 90
